Tested on: Staphylococcus aureus
Experiment: Antibacterial activity against Staphylococcus aureus MTCC 96 assessed as growth inhibition at 4 mg/mL after 24 hrs by agar well diffusion method
Type: functional
Settings: MTCC 96, 24 h, read-out: DIZ
zone of inhibition at 4000 µg/mL overview
// units = mm; emit number, no label

A selection of reference data follows.
{"columns": ["compound", "obs-value"],
 "data": [
  ["Cc1ccc(-n2cc(CN3C(=O)C4(C(C#N)=C(N)Oc5c4c(=O)n(C)c(=O)n5C)c4ccccc43)nn2)cc1 (stereo not given)", 14.3],
  ["N#CC1=C(N)OC2=C(C(=O)CCC2)C12C(=O)N(Cc1cn(-c3ccc(Br)cc3)nn1)c1ccccc12 (stereo not given)", 18.6],
  ["O=C(O)c1cn(C2CC2)c2cc(N3CCNCC3)c(F)cc2c1=O", 26.6],
  ["COc1ccc(-n2cc(CN3C(=O)C4(C(C#N)=C(N)Oc5c4c(=O)n(C)c(=O)n5C)c4ccccc43)nn2)cc1 (stereo not given)", 15.3]
]}

Okay, now this compound:
Q) Complete the entry with zone of inhibition at 4000 µg/mL for CC1(C)CC(=O)C2=C(C1)OC(N)=C(C#N)C21C(=O)N(Cc2cn(-c3cccc(Cl)c3)nn2)c2ccccc21 (stereo not given)
A) 19.3
